Values compiled from patent US20260209345A1.

Property: pIC50; scope: individual binders
- tested.system: T1, recombinant LILRB1 ECD (human, UniProt Q8NHL6 24-461)
- T1 construct: also called biotinylated LILRB1 ECD
- T1 sequence (Q8NHL6 24-461 limits assumed): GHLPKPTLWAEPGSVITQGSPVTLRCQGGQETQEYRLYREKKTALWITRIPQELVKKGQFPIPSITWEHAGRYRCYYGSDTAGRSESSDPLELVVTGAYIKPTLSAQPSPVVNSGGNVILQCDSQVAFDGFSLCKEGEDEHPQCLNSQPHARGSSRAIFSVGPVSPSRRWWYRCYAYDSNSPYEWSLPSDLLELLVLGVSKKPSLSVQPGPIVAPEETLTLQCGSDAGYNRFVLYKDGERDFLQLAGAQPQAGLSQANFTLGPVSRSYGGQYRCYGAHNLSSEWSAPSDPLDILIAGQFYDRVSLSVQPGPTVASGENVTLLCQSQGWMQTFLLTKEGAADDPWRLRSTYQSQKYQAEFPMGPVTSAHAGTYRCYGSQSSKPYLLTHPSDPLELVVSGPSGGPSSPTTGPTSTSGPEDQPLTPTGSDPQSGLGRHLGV
- experiment.summary: ELISA, LILRB1 ECD binding to HLA-G-Fc
Expect pIC50 as a plain number equal to -log10 of the molar concentration.

Answered cases to consult:
binder	readout.value
A-021 (antibody, V domains shown, tested as IgG) VH: QVQLVQSGAEVKKPGSSVKVSCKASGGSITSYAFAWVRQAPGQGLEWMGGIIPGFYAANYAQKFQGRVTITADESTSTAYMELSSLRSEDTAVYYCAKDLGTYSSGWPYYYGMDVWGQGTTVTVSS VL: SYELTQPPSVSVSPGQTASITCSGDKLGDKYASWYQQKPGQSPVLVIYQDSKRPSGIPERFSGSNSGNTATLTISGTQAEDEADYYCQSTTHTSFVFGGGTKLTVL	8.38
A-045 (antibody, V domains shown, tested as IgG; HC of A-010 and LC of A-036) VH: QVQLVQSGAEVKKPGSSVKVSCKASGGTFQSQAFAWVRQAPGQGLEWMGSIIPGFSTANYAQKFQGRVTITADESTSTAYMELSSLRSEDTAVYYCAKDLGTYSSGWPYYYGMDVWGQGTTVTVSS VL: SYELTQPPSVSVSPGQTASITCSGDKLGDKYASWYQQKPGQSPVLVIYQDSKRPSGIPERFSGSNSGNTATLTISGTQAEDEADYYCQLTHLTIYVFGGGTKLTVL	8.68
Ref062 [NGM707, cross-specific] (antibody, from another filing, V domains shown) VH: QVQLVQSGAEVKKPGASVKVSCKASGYTFTDYYINWVRQAPGQGLEWMGNVNPNDGGTTYNQKFKGRVTMTTDTSTSTAYMELRSLRSDDTAVYYCARREIYFYGTIYYYAMDYWGQGTLVTVSS VL: DIQLTQSPSFLSASVGDRVTITCRASESVDYYGNSFMYWYQQKPGKAPKLLIYFASNLESGVPSRFSGSGSGTEFTLTISSLQPEDFATYYCQQNNEDPWTFGGGTKVEIKR	8.24
A-047 (antibody, V domains shown, tested as IgG) VH: QVQLVQSGAEVKKPGSSVKVSCKASGYTFSKSAMSWVRQAPGQGLEWMGGIVPKFHTSVYAQKFQGRVTITADESTSTAYMELSSLRSEDTAVYYCAKGPPVGSSSWYTDWYFDLWGRGTLVTVSS VL: SYELTQPPSVSVSPGQTASITCSGDKLGDKYASWYQQKPGQSPVLVIYQDSKRPSGIPERFSGSNSGNTATLTISGTQAEDEADYYCSLYGAGHTVVFGGGTKLTVL	8.72

Moving on to another binder below.
The measured pIC50 associated with A-029 (antibody, V domains shown, tested as IgG) VH: QVQLVQSGAEVKKPGSSVKVSCKASGYTFSIYAMSWVRQAPGQGLEWMGGIIPSFRTAVYAQKFQGRVTITADESTSTAYMELSSLRSEDTAVYYCAKGPPVGSSSWYTDWYFDLWGRGTLVTVSS VL: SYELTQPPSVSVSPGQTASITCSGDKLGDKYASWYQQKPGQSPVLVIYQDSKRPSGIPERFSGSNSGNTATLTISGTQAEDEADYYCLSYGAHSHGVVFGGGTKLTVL reads 8.19
